These measurements were taken from ChEMBL document CHEMBL1275378.

assay: Selectivity ratio of IC50 for rat recombinant nNOS to IC50 for bovine recombinant eNOS
Param threshold (20) applies to nNOS selectivity over eNOS (eNOS IC50 / nNOS IC50); output Condition met when value >= threshold, Condition not met when value < threshold.

Take a look at these entries with their results.
# compound, groupLabel
records = [
    ("NCCN1C[C@H](Cc2cccc(N)n2)[C@H](NCCCc2ccccc2)C1 (racemic)", "Condition not met"),
    ("Cc1cc(N)nc(C[C@H]2CNC[C@@H]2NCCNCc2cccc(C(F)(F)F)c2)c1 (racemic)", "Condition met"),
    ("Nc1cccc(C[C@H]2CNC[C@@H]2N[C@@H]2CCNC2)n1 (racemic)", "Condition met"),
    ("CN(C)CCN[C@H]1CNC[C@@H]1Cc1cccc(N)n1 (racemic)", "Condition not met"),
    ("Cc1cc(N)nc(C[C@H]2CNC[C@@H]2NCCNCc2ccc(Cl)c(Cl)c2)c1 (racemic)", "Condition met"),
]

# bool: nNOS selectivity over eNOS (eNOS IC50 / nNOS IC50) of Nc1cccc(C[C@H]2CNC[C@@H]2N[C@H]2CCNC2)n1 (racemic) >= 20
Condition met

# bool: nNOS selectivity over eNOS (eNOS IC50 / nNOS IC50) of Cc1cc(N)nc(C[C@H]2CNC[C@@H]2NCCCc2ccccc2)c1 (racemic) >= 20
Condition not met

# bool: nNOS selectivity over eNOS (eNOS IC50 / nNOS IC50) of Nc1cccc(C[C@H]2CNC[C@@H]2N[C@@H]2CCN(Cc3ccccc3)C2)n1 (racemic) >= 20
Condition not met

# bool: nNOS selectivity over eNOS (eNOS IC50 / nNOS IC50) of Nc1cccc(C[C@H]2CNC[C@@H]2NC[C@@H](N)Cc2ccccc2)n1 (racemic) >= 20
Condition met

----------
# nNOS selectivity over eNOS (eNOS IC50 / nNOS IC50) annotations
assay: Selectivity ratio of IC50 for rat recombinant nNOS to IC50 for bovine recombinant eNOS
Answer using only a numeral; do not append any unit.

# compound, result
records = [
    ("Nc1cccc(C[C@H]2CNC[C@@H]2NCCNCc2ccccc2)n1 (racemic)", 201),
    ("NCCN1C[C@H](Cc2cccc(N)n2)[C@@H](NCCCc2ccccc2)C1 (racemic)", 43),
    ("Cc1cc(N)nc(C[C@H]2CNC[C@@H]2NCCNCc2ccc(F)cc2)c1 (racemic)", 90.5),
    ("Cc1cc(N)nc(C[C@H]2CNC[C@@H]2NCCNCc2ccc(Cl)cc2Cl)c1 (racemic)", 158),
]

Can you share its nNOS selectivity over eNOS (eNOS IC50 / nNOS IC50)? I mean this compound: Cc1cc(N)nc(C[C@H]2CNC[C@@H]2NC[C@H](C)NCc2ccc(Cl)cc2)c1 (racemic)
28

Can you share its nNOS selectivity over eNOS (eNOS IC50 / nNOS IC50)? I mean this compound: Nc1cccc(C[C@H]2CNC[C@@H]2O)n1 (racemic)
49

Can you share its nNOS selectivity over eNOS (eNOS IC50 / nNOS IC50)? I mean this compound: Cc1cccc(CNCCN[C@H]2CNC[C@@H]2Cc2cc(C)cc(N)n2)c1 (racemic)
306

Can you share its nNOS selectivity over eNOS (eNOS IC50 / nNOS IC50)? I mean this compound: Cc1cc(N)nc(C[C@H]2CNC[C@@H]2NCCNCCc2ccc(F)cc2)c1 (racemic)
370

Can you share its nNOS selectivity over eNOS (eNOS IC50 / nNOS IC50)? I mean this compound: Nc1cccc(C[C@H]2CNC[C@@H]2N[C@H]2CCN(Cc3ccccc3)C2)n1 (racemic)
6

Can you share its nNOS selectivity over eNOS (eNOS IC50 / nNOS IC50)? I mean this compound: Nc1cccc(C[C@H]2CNC[C@@H]2NC[C@H](N)Cc2ccccc2)n1 (racemic)
105

----------
assay: Selectivity ratio of IC50 for rat recombinant nNOS to IC50 for mouse recombinant iNOS
valueKind: Ratio

Can you share its Ratio? I mean this molecule: Nc1cccc(C[C@H]2CNC[C@@H]2N[C@H]2CCNC2)n1 (racemic)
18

----------
Target: Nitric oxide synthase 3 (Bos taurus, UniProt P29473)
Sequence (P29473 whole entry): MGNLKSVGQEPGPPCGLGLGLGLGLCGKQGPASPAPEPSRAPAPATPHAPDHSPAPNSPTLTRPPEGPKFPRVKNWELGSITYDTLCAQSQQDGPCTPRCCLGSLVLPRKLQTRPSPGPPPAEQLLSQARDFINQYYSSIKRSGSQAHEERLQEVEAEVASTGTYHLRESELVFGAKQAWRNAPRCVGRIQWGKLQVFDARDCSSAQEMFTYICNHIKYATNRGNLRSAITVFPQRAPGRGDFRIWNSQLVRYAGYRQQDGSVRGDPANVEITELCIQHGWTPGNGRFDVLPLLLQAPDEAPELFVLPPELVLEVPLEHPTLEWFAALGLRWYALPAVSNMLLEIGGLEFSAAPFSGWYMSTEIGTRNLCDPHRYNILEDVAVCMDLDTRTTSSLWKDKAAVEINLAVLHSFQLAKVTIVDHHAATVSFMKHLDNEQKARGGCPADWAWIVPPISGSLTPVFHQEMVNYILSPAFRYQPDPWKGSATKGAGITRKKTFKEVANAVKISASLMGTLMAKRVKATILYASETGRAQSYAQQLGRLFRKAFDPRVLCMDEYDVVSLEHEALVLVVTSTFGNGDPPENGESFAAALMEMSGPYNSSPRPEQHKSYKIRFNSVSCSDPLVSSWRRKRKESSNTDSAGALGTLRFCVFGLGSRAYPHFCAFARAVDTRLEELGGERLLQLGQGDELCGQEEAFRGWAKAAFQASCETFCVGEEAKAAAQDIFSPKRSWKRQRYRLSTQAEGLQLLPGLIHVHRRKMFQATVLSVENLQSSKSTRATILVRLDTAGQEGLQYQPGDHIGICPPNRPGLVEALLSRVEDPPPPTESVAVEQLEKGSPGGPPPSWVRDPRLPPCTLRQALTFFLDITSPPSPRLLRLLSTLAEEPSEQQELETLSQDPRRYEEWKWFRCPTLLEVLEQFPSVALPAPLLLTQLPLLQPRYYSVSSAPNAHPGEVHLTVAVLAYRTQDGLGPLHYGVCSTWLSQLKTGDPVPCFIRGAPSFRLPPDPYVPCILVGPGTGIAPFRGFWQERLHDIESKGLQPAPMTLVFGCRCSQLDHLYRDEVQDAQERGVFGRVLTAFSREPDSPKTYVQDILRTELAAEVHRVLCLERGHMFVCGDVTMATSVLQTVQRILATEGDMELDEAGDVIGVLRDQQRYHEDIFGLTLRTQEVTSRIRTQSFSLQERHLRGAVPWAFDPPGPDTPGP
Assay: Inhibition of bovine recombinant eNOS
pKi: −log10 of the molar value.
Param threshold (4) applies to pKi; output Met when value >= threshold, Not met when value < threshold.

# compound, groupLabel
records = [
    ("Nc1cccc(C[C@H]2CNC[C@@H]2NCCNCc2ccccc2)n1 (racemic)", "Not met"),
]

# bool: pKi of Nc1cccc(C[C@H]2CNC[C@@H]2NC[C@@H](N)Cc2ccccc2)n1 (racemic) >= 4
Not met

# bool: pKi of CN(C)CCN[C@H]1CNC[C@@H]1Cc1cccc(N)n1 (racemic) >= 4
Not met

# bool: pKi of Cc1cc(N)nc(C[C@H]2CNC[C@@H]2NCCNCCc2ccc(F)cc2)c1 (racemic) >= 4
Met

# bool: pKi of Nc1cccc(C[C@H]2CNC[C@@H]2N[C@@H]2CCN(Cc3ccccc3)C2)n1 (racemic) >= 4
Not met

# bool: pKi of Nc1cccc(C[C@H]2CNC[C@@H]2N[C@H]2CCNC2)n1 (racemic) >= 4
Not met

# bool: pKi of Cc1cc(N)nc(C[C@H]2CNC[C@@H]2NCCN)c1 (racemic; form 2) >= 4
Not met

# bool: pKi of Cc1cc(N)nc(C[C@H]2CNC[C@@H]2NCCNCc2ccc(Cl)cc2Cl)c1 (racemic) >= 4
Met

# bool: pKi of Cc1cccc(CNCCN[C@H]2CNC[C@@H]2Cc2cc(C)cc(N)n2)c1 (racemic) >= 4
Not met

# bool: pKi of Cc1cc(N)nc(C[C@H]2CNC[C@@H]2NC[C@H](C)NCc2ccc(Cl)cc2)c1 (racemic) >= 4
Met

# bool: pKi of NCCN1C[C@H](Cc2cccc(N)n2)[C@@H](NCCCO)C1 (racemic) >= 4
Not met

# bool: pKi of Cc1cc(N)nc(C[C@H]2CNC[C@H]2N(C)CCNCc2ccc(Cl)cc2)c1 (racemic) >= 4
Met

----------
assay: Selectivity ratio of IC50 for rat recombinant nNOS to IC50 for mouse recombinant iNOS
valueKind: Ratio
Answer using only a numeral; do not append any unit.

These recorded examples may help you get a feel for the data.
# compound, Ratio
rows = [
    ("Cc1cc(N)nc(C[C@H]2CNC[C@@H]2NCCNCc2ccc(F)cc2)c1 (racemic)", 31),
    ("Cc1cc(N)nc(C[C@H]2CNC[C@@H]2NCCNCCc2ccc(F)cc2)c1 (racemic)", 190),
    ("Nc1cccc(C[C@H]2CNC[C@@H]2NC[C@H](N)Cc2ccccc2)n1 (racemic)", 21.5),
    ("Cc1cc(N)nc(C[C@H]2CNC[C@@H]2NCCCO)c1 (racemic)", 8),
    ("Nc1cccc(C[C@H]2CNC[C@@H]2N[C@@H]2CCNC2)n1 (racemic)", 12),
]

Can you share its Ratio? I mean this compound: Nc1cccc(C[C@H]2CNC[C@@H]2NCCNCc2ccccc2)n1 (racemic)
11.5

Can you share its Ratio? I mean this compound: Cc1cc(N)nc(C[C@H]2CNC[C@@H]2NCCCc2ccccc2)c1 (racemic)
11

Can you share its Ratio? I mean this compound: Nc1cccc(C[C@H]2CNC[C@@H]2N[C@H]2CCN(Cc3ccccc3)C2)n1 (racemic)
12

Can you share its Ratio? I mean this compound: Cc1cc(N)nc(C[C@H]2CNC[C@@H]2NCCNCc2ccc(Cl)cc2Cl)c1 (racemic)
92
